Biological target: human A2B (hA2B) ARs (Homo sapiens, UniProt P29275)
Construct: expressed in transfected cells; host or cells: CHO cells (membranes)
Assay: Radioligand binding [3H]PSB-603, CHO cell membranes
Details: read-out: hA2B [3H]PSB-603 % inhibition ± SEM at 1 µM
recorded_metric: inhibition at 1 µM (%)
Form entry: value (%) — number only.

The cases that follow already have their inhibition at 1 µM on record.
>>> numeric_value("Cn1c(=O)c2c(nc(NCCc3ccc(O)c(O)c3)n2Cc2ccccc2)n(C)c1=O [Compound 11j]")
31
>>> numeric_value("Cn1c(=O)c2c(nc(NCCc3ccc(O)c(O)c3)n2CCc2ccccc2)n(C)c1=O [Compound 11k]")
-9
>>> numeric_value("CCCn1c(=O)c2c(nc(NCCc3ccc(O)c(O)c3)n2CCC)n(CCC)c1=O")
34
>>> numeric_value("CCCCn1c(=O)c2c(nc(NCCc3ccc(O)c(O)c3)n2CCC)n(CCCC)c1=O")
31
>>> numeric_value("CC(C)Cn1c(NCCc2ccc(O)c(O)c2)nc2c1c(=O)n(C)c(=O)n2C [Compound 11f]")
1

Respond only with inhibition at 1 µM recorded for CCC(C)n1c(NCCc2ccc(O)c(O)c2)nc2c1c(=O)n(C)c(=O)n2C (centres unmarked) [Compound 11g]
-5

Respond only with inhibition at 1 µM recorded for CC(C)n1c(NCCc2ccc(O)c(O)c2)nc2c1c(=O)n(C)c(=O)n2C [Compound 11d]
13

Respond only with inhibition at 1 µM recorded for Cn1c(=O)c2c(nc(NCCc3ccc(O)c(O)c3)n2CCOc2ccccc2)n(C)c1=O [Compound 11l]
22

----------
Biological target: human MAO-A (Homo sapiens, UniProt P21397)
Construct: purchased Sigma Aldrich M7316
Assay: Amplex Red monoamine oxidase assay, MAO-A
Assay type: biochemical
Conditions: read-out: MAO-A % Inhibition ± SEM at 1 µM
Binary call on inhibition at 1 µM: Y from 40% upward, N beneath that.

For orientation, consider the following solved cases.
>>> assigned_category("Cn1c(=O)c2c(nc3n2CCCCN3CCc2ccc(O)c(O)c2)n(C)c1=O [Compound 20b]")
"Y"
>>> assigned_category("CCCCn1c(NCCc2ccc(O)c(O)c2)nc2c1c(=O)n(C)c(=O)n2C [Compound 11e]")
"N"
>>> assigned_category("CC(C)n1c(NCCc2ccc(O)c(O)c2)nc2c1c(=O)n(C)c(=O)n2C [Compound 11d]")
"Y"
>>> assigned_category("Cn1c(=O)c2c(nc3n2CCCN3CCc2ccc(O)c(O)c2)n(C)c1=O [Compound 20a]")
"N"
>>> assigned_category("CCCCn1c(=O)c2c(nc3n2CCCN3CCc2ccc(O)c(O)c2)n(CCCC)c1=O [Compound 22]")
"Y"
>>> assigned_category("CCCn1c(=O)c2c(nc3n2CCCN3CCc2ccc(O)c(O)c2)n(CCC)c1=O [Compound 21]")
"Y"

# next compound below
Could you verify whether the entry CCCCn1c(=O)c2c(nc(NCCc3ccc(O)c(O)c3)n2CCC)n(CCCC)c1=O [Compound 13] shows inhibition at 1 µM of no less than 40%?
N

----------
Molecular target: human MAO-A (Homo sapiens)
Sequence (P21397 1-527): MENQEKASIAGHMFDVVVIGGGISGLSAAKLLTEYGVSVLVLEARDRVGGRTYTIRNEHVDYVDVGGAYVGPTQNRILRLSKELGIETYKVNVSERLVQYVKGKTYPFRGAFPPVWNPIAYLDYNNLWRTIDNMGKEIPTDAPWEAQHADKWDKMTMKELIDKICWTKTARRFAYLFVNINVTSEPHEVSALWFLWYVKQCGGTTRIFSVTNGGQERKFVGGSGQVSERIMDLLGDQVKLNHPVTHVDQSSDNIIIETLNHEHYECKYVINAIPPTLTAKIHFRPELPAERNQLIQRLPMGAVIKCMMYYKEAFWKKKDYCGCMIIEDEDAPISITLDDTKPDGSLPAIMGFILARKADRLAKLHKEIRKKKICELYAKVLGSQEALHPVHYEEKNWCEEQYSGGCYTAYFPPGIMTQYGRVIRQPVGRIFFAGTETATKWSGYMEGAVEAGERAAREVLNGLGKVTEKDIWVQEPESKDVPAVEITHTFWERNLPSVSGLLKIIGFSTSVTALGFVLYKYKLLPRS
Experiment: Amplex Red monoamine oxidase assay, MAO-A
Details: human recombinant MAO-A; read-out: MAO-A IC50 ± SEM
pIC50: −log10 of the molar value.
Listed below: pIC50 values for each entry.

The cases that follow already have their pIC50 on record.
>>> result("CCCn1c(=O)c2c(nc(NCCc3ccc(O)c(O)c3)n2CCC)n(CCC)c1=O [Compound 12]")
"~6.00"
>>> result("CCCn1c(NCCc2ccc(O)c(O)c2)nc2c1c(=O)n(C)c(=O)n2C [Compound 11c]")
"< 6.00"
>>> result("CC(C)Cn1c(NCCc2ccc(O)c(O)c2)nc2c1c(=O)n(C)c(=O)n2C [Compound 11f]")
"< 6.00"

Respond only with pIC50 recorded for Cn1c(=O)c2c(nc3n2CCCN3CCc2ccc(O)c(O)c2)n(C)c1=O [Compound 20a]
< 6.00

Respond only with pIC50 recorded for Cn1c(=O)c2c(nc(NCCc3ccc(O)c(O)c3)n2CCc2ccccc2)n(C)c1=O [Compound 11k]
6.59

Respond only with pIC50 recorded for Cn1c(=O)c2c(nc(NCCc3ccc(O)c(O)c3)n2CCOc2ccccc2)n(C)c1=O [Compound 11l]
< 6.00

Respond only with pIC50 recorded for CCC(C)n1c(NCCc2ccc(O)c(O)c2)nc2c1c(=O)n(C)c(=O)n2C (stereo not shown) [Compound 11g]
< 6.00

----------
Target: human A3 (hA3) ARs (Homo sapiens)
Construct: expressed in transfected cells; host or cells: CHO cells (membranes)
Sequence (P0DMS8 whole entry): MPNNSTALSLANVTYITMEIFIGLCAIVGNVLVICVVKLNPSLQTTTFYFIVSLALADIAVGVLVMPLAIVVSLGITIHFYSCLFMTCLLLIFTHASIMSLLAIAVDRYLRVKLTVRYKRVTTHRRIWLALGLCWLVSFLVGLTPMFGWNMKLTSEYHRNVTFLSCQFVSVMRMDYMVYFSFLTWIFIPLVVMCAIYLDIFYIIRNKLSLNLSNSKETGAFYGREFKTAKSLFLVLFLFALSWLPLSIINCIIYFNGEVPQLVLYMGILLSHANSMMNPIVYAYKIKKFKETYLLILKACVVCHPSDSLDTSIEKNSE
Test: Radioligand binding [3H]PSB-11, CHO cell membranes
Details: read-out: hA3 [3H]PSB-11 % inhibition ± SEM at 1 µM
recorded_metric: inhibition at 1 µM (%)
Form entry: value (%) — number only.

The cases that follow already have their inhibition at 1 µM on record.
>>> numeric_value("CC(C)Cn1c(NCCc2ccc(O)c(O)c2)nc2c1c(=O)n(C)c(=O)n2C [Compound 11f]")
-6
>>> numeric_value("CCn1c(NCCc2ccc(O)c(O)c2)nc2c1c(=O)n(C)c(=O)n2C [Compound 11b]")
-5
>>> numeric_value("CCC(C)n1c(NCCc2ccc(O)c(O)c2)nc2c1c(=O)n(C)c(=O)n2C (centres unmarked) [Compound 11g]")
-4
>>> numeric_value("CCCCCCn1c(NCCc2ccc(O)c(O)c2)nc2c1c(=O)n(C)c(=O)n2C [Compound 11i]")
3
>>> numeric_value("CCCn1c(=O)c2c(nc3n2CCCN3CCc2ccc(O)c(O)c2)n(CCC)c1=O [Compound 21]")
26
>>> numeric_value("CCCCn1c(NCCc2ccc(O)c(O)c2)nc2c1c(=O)n(C)c(=O)n2C [Compound 11e]")
0

Respond only with inhibition at 1 µM recorded for CCCCn1c(=O)c2c(nc(NCCc3ccc(O)c(O)c3)n2CCC)n(CCCC)c1=O [Compound 13]
17

Respond only with inhibition at 1 µM recorded for Cn1c(=O)c2c(nc(NCCc3ccc(O)c(O)c3)n2C)n(C)c1=O [Compound 11a]
-1

Respond only with inhibition at 1 µM recorded for CCCn1c(=O)c2c(nc(NCCc3ccc(O)c(O)c3)n2CCC)n(CCC)c1=O [Compound 12]
25

Respond only with inhibition at 1 µM recorded for Cn1c(=O)c2c(nc3n2CCCN3CCc2ccc(O)c(O)c2)n(C)c1=O [Compound 20a]
-6

Respond only with inhibition at 1 µM recorded for Cn1c(=O)c2c(nc(NCCc3ccc(O)c(O)c3)n2Cc2ccccc2)n(C)c1=O [Compound 11j]
7

Respond only with inhibition at 1 µM recorded for CCCn1c(NCCc2ccc(O)c(O)c2)nc2c1c(=O)n(C)c(=O)n2C [Compound 11c]
5

Respond only with inhibition at 1 µM recorded for Cn1c(=O)c2c(nc(NCCc3ccc(O)c(O)c3)n2CCc2ccccc2)n(C)c1=O [Compound 11k]
-1

Respond only with inhibition at 1 µM recorded for CCCCCn1c(NCCc2ccc(O)c(O)c2)nc2c1c(=O)n(C)c(=O)n2C [Compound 11h]
0

Respond only with inhibition at 1 µM recorded for Cn1c(=O)c2c(nc(NCCc3ccc(O)c(O)c3)n2CCOc2ccccc2)n(C)c1=O [Compound 11l]
-2

Respond only with inhibition at 1 µM recorded for Cn1c(=O)c2c(nc3n2CCCCN3CCc2ccc(O)c(O)c2)n(C)c1=O [Compound 20b]
-2

Respond only with inhibition at 1 µM recorded for CC(C)n1c(NCCc2ccc(O)c(O)c2)nc2c1c(=O)n(C)c(=O)n2C [Compound 11d]
12

----------
Target chain: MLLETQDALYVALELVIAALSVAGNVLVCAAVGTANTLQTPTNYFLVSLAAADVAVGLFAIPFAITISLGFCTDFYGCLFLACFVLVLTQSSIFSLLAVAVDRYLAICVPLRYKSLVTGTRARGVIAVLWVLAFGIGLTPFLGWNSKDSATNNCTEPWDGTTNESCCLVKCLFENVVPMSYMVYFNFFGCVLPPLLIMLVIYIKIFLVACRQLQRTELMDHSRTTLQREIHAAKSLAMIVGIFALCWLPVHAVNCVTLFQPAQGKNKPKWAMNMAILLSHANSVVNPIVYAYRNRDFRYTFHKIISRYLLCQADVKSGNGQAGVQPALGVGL
recorded_metric: Ki

The cases that follow already have their Ki on record.
>>> result("CCn1c(NCCc2ccc(O)c(O)c2)nc2c1c(=O)n(C)c(=O)n2C [Compound 11b]")
"> 1000 nM"
>>> result("CCCn1c(=O)c2c(nc3n2CCCN3CCc2ccc(O)c(O)c2)n(CCC)c1=O")
"371 nM"
>>> result("CCCCn1c(NCCc2ccc(O)c(O)c2)nc2c1c(=O)n(C)c(=O)n2C [Compound 11e]")
"> 1000 nM"

Respond only with Ki recorded for Cn1c(=O)c2c(nc3n2CCCN3CCc2ccc(O)c(O)c2)n(C)c1=O [Compound 20a]
> 1000 nM

Respond only with Ki recorded for CC(C)n1c(NCCc2ccc(O)c(O)c2)nc2c1c(=O)n(C)c(=O)n2C [Compound 11d]
> 1000 nM

Respond only with Ki recorded for CCCCCCn1c(NCCc2ccc(O)c(O)c2)nc2c1c(=O)n(C)c(=O)n2C [Compound 11i]
> 1000 nM

Respond only with Ki recorded for Cn1c(=O)c2c(nc(NCCc3ccc(O)c(O)c3)n2Cc2ccccc2)n(C)c1=O [Compound 11j]
> 1000 nM

Respond only with Ki recorded for Cn1c(=O)c2c(nc(NCCc3ccc(O)c(O)c3)n2C)n(C)c1=O [Compound 11a]
> 1000 nM

Respond only with Ki recorded for "CCCCn1c(=O)c2c(nc3n2CCCN3CCc2ccc(O)c(O)c2)n(CCCC)c1=O"
175 nM

Reference source: paper PMC10377586
